The next entries give measured IC50 for Prostaglandin G/H synthase 1 (Ovis aries, UniProt P05979).
Give bare numbers, in nM.

Example cases with answers are listed next.
COMPOUND	OUTPUT UNIT	IC50
Cc1onc(-c2ccccc2)c1-c1ccccc1	nM	90
CCc1onc(-c2ccccc2)c1-c1ccccc1	nM	50
COc1ccc(-c2nc(C(=O)N3CCN(C)CC3)sc2-c2ccc(OC)cc2)cc1 [FR-122047]	nM	28

**Query** Item `CCOc1ccc(N)cc1C(=O)Nc1cccc(C(F)(F)F)c1` has what recorded IC50?
**Result** 3200

* * *

Assay read-out IC50; system under study: Prostaglandin G/H synthase 2 (Homo sapiens, UniProt P35354).
Sequence (P35354 whole entry): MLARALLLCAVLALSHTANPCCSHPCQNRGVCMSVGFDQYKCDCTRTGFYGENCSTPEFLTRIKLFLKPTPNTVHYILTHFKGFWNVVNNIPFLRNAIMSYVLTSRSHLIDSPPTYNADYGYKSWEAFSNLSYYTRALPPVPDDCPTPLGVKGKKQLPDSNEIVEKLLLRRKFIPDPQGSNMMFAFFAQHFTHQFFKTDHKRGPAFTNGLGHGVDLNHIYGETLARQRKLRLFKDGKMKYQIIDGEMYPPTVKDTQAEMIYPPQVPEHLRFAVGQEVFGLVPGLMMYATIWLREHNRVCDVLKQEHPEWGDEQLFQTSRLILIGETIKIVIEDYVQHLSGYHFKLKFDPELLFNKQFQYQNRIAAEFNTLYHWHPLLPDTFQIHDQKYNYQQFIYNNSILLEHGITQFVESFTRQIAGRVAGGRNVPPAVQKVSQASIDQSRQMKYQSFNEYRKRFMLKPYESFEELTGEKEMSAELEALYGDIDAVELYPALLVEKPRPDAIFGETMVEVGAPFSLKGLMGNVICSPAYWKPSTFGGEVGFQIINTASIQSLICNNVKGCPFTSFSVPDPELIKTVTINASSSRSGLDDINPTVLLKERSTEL

Known IC50 results, listed for orientation:
CCCCOc1ccc(-c2noc(CC(=O)O)c2-c2ccc(OCCCC)cc2)cc1 > 50 µM
CCOc1ccc(-c2c(-c3ccc(OC)cc3)noc2C)cc1 > 50 µM

Please turn your attention to the following entry.
**Query** Reported IC50, compound `COc1ccc(-c2noc(C)c2-c2ccc(Oc3ccccc3)cc2)cc1` : ____
**Result** > 50 µM
